Entries and their IC50
System Tested: T1, dimeric hIL-4R-hFc (human, UniProt P24394 26-232)
T1 construct: also called hIL-4R-Fc; not shown: human Fc (hFc)
T1 sequence: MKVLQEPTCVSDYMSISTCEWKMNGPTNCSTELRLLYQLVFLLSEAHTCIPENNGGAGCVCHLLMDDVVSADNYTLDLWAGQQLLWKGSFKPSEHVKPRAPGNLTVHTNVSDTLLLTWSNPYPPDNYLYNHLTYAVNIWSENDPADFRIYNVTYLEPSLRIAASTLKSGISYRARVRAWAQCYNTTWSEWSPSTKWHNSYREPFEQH
Method Description: ELISA; antibody titrated against 25 pM hIL-4R-Fc, free receptor caught on hIL-4 plate
Endpoint Label: IC50 (nM)

INSERT INTO results (binder, endpoint_label, assay_value) VALUES
  ('VAB 6C10-14 (antibody, V domains shown, Apparently tested with mouse constant region (anti-mouse IgG capture/detection)) VH: QVQLVQSGAEVKKPGASVKVSCKASGYTFTNYGLTWVRQAPGRGLEWMGWISVYNGNTNYAQTLKGRVTMTTDTSTSTAYMELKSLRSDDTAVYYCARGSGYDFDYWGQGTLVTVSS VL: AIQMTQSPSSLSASVGDRVAITCRASQDIRNDLGWYQQKPGKAPKLLIHTASSLQSGVPSRFSGSGSGTDFTLTISNLQPEDFATYYCLQDNSYPYTFGQGTKLEIN', 'IC50', 0.441),
  ('VAB 16F3-1 (antibody, V domains shown, Apparently tested with mouse constant region (anti-mouse IgG capture/detection)) VH: QVQLVQSGAEVKKPGASVKVSCKASGYTFNSYGISWVRQAPGQGLEWMGWIRTYNGNTNYAQKLQGRVTMTTDTSTSTAYMELRSLRSDDTAVYYCARDEARIVVAGTTPYYYGMDVWGQGTTVTVSS VL: DIQMTQSPSSVSASVGDRVTITCRASQDISIWLAWYQQSPGKAPKLLINVASRLQSGVPSRFSGSGSGTDFTLTINSLQPEDFVTYYCQQANSFPITFGQGTRLATK', 'IC50', 0.019),
  ('VAB 15C8-17 (antibody, V domains shown, Apparently tested with mouse constant region (anti-mouse IgG capture/detection)) VH: QVQLVESGGGLVQPGGSLRLSCAVSGFTISDHYMSWIRQAPGKGLEWISYISSSGSKIYYADSVKGRFTISRDNAKNSLFLQMNSLRAEDTAVYYCARTRQLVGDYWGQGTLVTVSS VL: DIQLTQSPSFLSASVGDRVTITCWASQGISSYLAWYQQKPGKAPKLLIFAASTLQSGVPSRFSGSGSGTEFTLTISSLQPEDFATYYCQQLNSYPLTFGGGTKVEIR', 'IC50', 0.029),
  ('VAK5H4-4 (antibody, V domains shown, Apparently tested with mouse constant region (anti-mouse IgG capture/detection)) VH: QVRLVESGGGVVQPGGSLRLSCVASGFTFRSYGMHWVRQAPGRGLEWVAVISYDGSKTFYVDSVKVRFTISRDNSKNTLYLEMNSLRVDDTAVYFCVKEGRSGSWFDPWGQGTLVAVSS VL: DIQMTQSPSSLSASVGDRVTITCRASQAINNFLAWFQQKPGKTPNSLIFATSSLQSGVPSRFSAGGSGTDFTLTISSLQPEDFATYYCQQYNSHPWTFGQGTKVEIK', 'IC50', 0.033),
  ('VAB 4D5-3 (antibody, V domains shown, Apparently tested with mouse constant region (anti-mouse IgG capture/detection)) VH: QVQLVQSGPEVKKPGASVKVSCKASGYTFTNYGISWVRQAPGQGLEWMGWISVYNGKTNYAQKFQGRVTMTTDTSTSTAYMDLRSLRSDDTAVYYCARGSGYDFDYWGQGTLVTVSS VL: AIQMTQSPSSLSASVGDRVTITCRASQGIRNALGWYQQKPGKAPKLLIFASSSLQSGVPSRFSGSGSGTDFTLTIRSLQPEDFAAYYCLQDYNYPYTFGQGTKLEIK', 'IC50', 0.24),
  ('VAB 10G8-19 (antibody, V domains shown, Apparently tested with mouse constant region (anti-mouse IgG capture/detection)) VH: QVQLVQSGAEVKKPGASVKVSCKASRYTFTSYDINWVRQATGQGLEWMGWMNPNSGNTGYAQKFQGRVTMTRNTSTSTAYMELSSLRSEDTAVYYCARVRRFFDYWGQGTLVTVSS VL: DIQLTQSPSFLSASVGDRVTITCWASQGIISYLAWYQQKPGKAPKLLIYAASTLHSGVPSRFSGSGSGTEFTLTISSLQPEDFATYYCHQLKSYPITFGQGTRLEIK', 'IC50', 0.018),
  ('VX 4E7-9 (antibody, V domains shown, 387/389; Apparently tested with mouse constant region (anti-mouse IgG capture/detection)) VH: QVQLVQSGAEVKKPGASVKVSCKASGYTFTNYGISWVRQAPGQGLEWMGWISVYNGKTNYAQKLQGRVTMTTDTSTTTAYMEMRSLRSDDTAVYYCARGSGYDLDYWGQGTLVSVSS VL: AIQMTQSPSSLSASVGDRVTITCRASQGIRNALGWYQQKPGKAPKLLIYAASSLQSGVPSRFSGSGSGTDFTLTFSSLQPEDFATYYCLQDFNYPYTFGQGTKLEIK', 'IC50', 0.118),
  ('VAB 16G1-1 (antibody, V domains shown, 403/405; 407/409 without saying which was assayed; Apparently tested with mouse constant region (anti-mouse IgG capture/detection)) VH: EVKLAESGGGLVQPGGSLRLSCAASGFTFSSHWMNWVRQAPGKGLEWVANIKQDGSDKYYVDSVKGRFTISRDNAKNSLYLQLNSLIAEDTAVYYCARDRGVRPPRGAFDIWGQGTMVTVSS VL: DIQMTQSPSSVSASVGDRVTITCRASQGISSWLAWYQQKPGKAPKLLIYAASSFQSGVPSRFSGSGSGTDFTLTISSLQPEDFATYFCQQANSFPLTFGGGTTVEIK', 'IC50', 0.018),
  ('VAK10G6-7 (antibody, V domains shown, Apparently tested with mouse constant region (anti-mouse IgG capture/detection)) VH: QVQLVESGGGVVQPGRSLRLSCTASGFTFSSFGMHWVRQAPGRGLEWVAVISYDGSKKYYADSVKVRFTISRDNSKNTLYLQMNSLRVDDTAVYFCAKEGRTGNWFDPWGQGTLVAVSS VL: DIQMTQSPSSLSASVGDRVTITCRASQAINNYLAWFQQKPGKTPKSLIFATSSLQSGVPSRFSGTGSGTDFTLTISSLQPEDFATYYCQQYNSHPWTFGQGTKVEIR', 'IC50', 0.037),
  ('VAB 3B4-10 (antibody, V domains shown, Apparently tested with mouse constant region (anti-mouse IgG capture/detection)) VH: QVHLVQSGAEVKKPGASVKVSCKASGYTFTNYGIGWVRQAPGQGLEWMGWISIYNGNTNYAQRLQGRVTMTTDTSTSTAFMDLRSLKSDDTAVYYCARGSGYNFDHWGQGTLVTVSS VL: AIQMTQSPSSLSASVGDRVTITCRASQGIRNDLGWYQQIPGKAPKLLIYAASSLQSGVPSRFSGSGSGTDFTLTISNLQPEDFAVYFCLQDNTYPYTFGQGTNLESK', 'IC50', 0.322),
  ('VAB 1H1-2 (antibody, V domains shown, Apparently tested with mouse constant region (anti-mouse IgG capture/detection)) VH: QVQLVQSGAEVKKPGASVKVSCKASGYTFTSYGISWVRQAPGQGLEWMGWISVYNGNTNYAQKLQGRVTMTTDTSTSTAYMDLRSLRSDDAAVYYCARGSGYDFDYWGQGTLVTVSS VL: AIQMTQSPSSLSASVGDRVTITCRASQGIRNALGWYQQKPGKAPKLLIYAASSLQSGVPSRFSGSGSGTDFTLTISSLQSEDFATYYCLQDYNYPYTFGQGTKLEIK', 'IC50', 0.146);
